meta.source: patent US20170081400A1

System under test: T1, human TL1A extracellular domain with N-terminal HIS and FLAG tag (human, UniProt O95150 72-251)
T1 construct: whole entry named. ~70 kDa fraction purified by gel filtration
T1 sequence: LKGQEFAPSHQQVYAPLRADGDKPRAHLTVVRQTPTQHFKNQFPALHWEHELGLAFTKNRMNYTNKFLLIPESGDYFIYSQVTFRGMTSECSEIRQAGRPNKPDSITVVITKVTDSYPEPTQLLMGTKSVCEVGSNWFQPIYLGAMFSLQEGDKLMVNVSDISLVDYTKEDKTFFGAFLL
Test method notes: SPR run 3; supernatant on Protein A; TL1A 10 ug/mL; timepoint 59
Measurement type: TL1A Binding Level (Early)
Note: state the figure and append the unit.

[
  {
    "Binder": "320-310 (antibody, human IgG1, name in Kabat numbering, V domains shown, human IgG1, lambda) VH: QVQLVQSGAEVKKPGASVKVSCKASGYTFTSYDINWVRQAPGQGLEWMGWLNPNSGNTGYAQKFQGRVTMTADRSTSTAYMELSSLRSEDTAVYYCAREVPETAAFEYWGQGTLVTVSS VL: QSVLTQPPSVSGAPGQRVTISCTSSSSDIGAGLGVHWYQQLPGTAPKLLIEGYYNRPSGVPDRFSGSKSGTSASLTITGLLPEDEGDYYCASYDGTLSALFGGGTKLTVLG",
    "TL1A Binding Level (Early)": "70 RU"
  }
]

Query string: Look up TL1A Binding Level (Early): 320-279 (antibody, human IgG1, name in Kabat numbering, V domains shown, human IgG1, lambda) VH: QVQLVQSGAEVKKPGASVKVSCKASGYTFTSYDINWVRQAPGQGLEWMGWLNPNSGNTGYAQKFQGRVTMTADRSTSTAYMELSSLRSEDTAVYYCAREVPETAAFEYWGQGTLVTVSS VL: QSVLTQPPSVSGAPGQRVTISCTSSSSDIGAGDGVHWYQQLPGTAPKLLIEGYYNRPSGVPDRFSGSKSGTSASLTITGLLPEDEGDYYCQSYDGTLSALFGGGTKLTVLG
Result string: 144 RU
